biological target: hSERT F335azF (Homo sapiens); experiment: [3H]5-HT uptake assay (kinetics and uptake inhibition) in HEK293T cells; details: [3H]5-HT uptake inhibition, F335azF (S1 mutant); mean ± s.e.m.
Sequence (P31645 whole entry): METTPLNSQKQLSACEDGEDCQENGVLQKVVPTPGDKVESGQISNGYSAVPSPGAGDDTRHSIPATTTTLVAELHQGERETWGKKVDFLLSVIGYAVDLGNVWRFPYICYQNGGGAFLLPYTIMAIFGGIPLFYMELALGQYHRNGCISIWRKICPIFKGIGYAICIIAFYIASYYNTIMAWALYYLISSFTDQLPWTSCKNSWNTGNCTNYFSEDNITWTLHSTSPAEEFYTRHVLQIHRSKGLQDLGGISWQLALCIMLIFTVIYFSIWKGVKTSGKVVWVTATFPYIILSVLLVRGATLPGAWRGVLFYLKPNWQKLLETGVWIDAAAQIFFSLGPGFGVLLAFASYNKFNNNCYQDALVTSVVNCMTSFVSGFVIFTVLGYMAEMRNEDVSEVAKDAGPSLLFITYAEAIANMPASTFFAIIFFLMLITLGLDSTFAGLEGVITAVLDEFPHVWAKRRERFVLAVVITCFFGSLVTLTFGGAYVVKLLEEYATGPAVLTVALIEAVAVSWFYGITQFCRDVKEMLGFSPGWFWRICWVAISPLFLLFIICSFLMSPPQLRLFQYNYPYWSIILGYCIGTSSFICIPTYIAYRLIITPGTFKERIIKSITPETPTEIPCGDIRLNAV

COMPOUND | Ki, nM
Cc1ccc(Sc2ccccc2N2CCNCC2)c(C)c1 [vortioxetine] | 54
